B1: TRIM29 (parent)
chain: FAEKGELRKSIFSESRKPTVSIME

# Variants of: B1
# TEST DESCRIPTION: protein stability index of a GFP-peptide fusion (GPS, HEK-293T) (PSI 1-6); higher = more stable;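 also: lentivirally expressed fusions sorted by FACS into six bins by GFP to DsRed ratio, PSI derived from sequencing read proportions per bin multiplied by bin number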
# MEASUREMENT SETUP: c terminus: a fixed tail appended
Here the recorded protein stability index is given for each entry.

SEQ STRING: FAEKGELRKSIFSESRKPTVSSME
protein stability index: 1.78
--
SEQ STRING: FAEKGELRKSIFSESRKPLVSIME
protein stability index: 1.6
--
SEQ STRING: FAEKGELRKSIFSESPKPTVSIME
protein stability index: 1.96
--
SEQ STRING: FAEKGELRKSIFSESRKPTVSIMT
protein stability index: 1.88
--
SEQ STRING: FAEKGELRKSTFSESRKPTVSIME
protein stability index: 2.65
--
SEQ STRING: FAEKGELRKEIFSESRKPTVSIME
protein stability index: 2.12
--
SEQ STRING: FAEKGELRKSIFSNSRKPTVSIME
protein stability index: 1.95
--
SEQ STRING: FAEKGELRKSIFSESRKPTPSIME
protein stability index: 1.89
--
SEQ STRING: FAEKGELRKSIFSESRKPTVRIME
protein stability index: 2.19
--
SEQ STRING: FAEKGELRKSIFSESRKRTVSIME
protein stability index: 2.32
--
SEQ STRING: FCEKGELRKSIFSESRKPTVSIME
protein stability index: 1.66
--
SEQ STRING: FAEKGELRDSIFSESRKPTVSIME
protein stability index: 1.85
--
SEQ STRING: FAEKGELRKSIFSESRKPTVSPME
protein stability index: 2.48
--
SEQ STRING: FAEKGELRKSIKSESRKPTVSIME
protein stability index: 3.54
--
SEQ STRING: FAEKGEERKSIFSESRKPTVSIME
protein stability index: 3.15
--
SEQ STRING: FAEKGELRKSIFSESRKLTVSIME
protein stability index: 1.98
--
SEQ STRING: FAEKGELRKSIFSESRKPTVSIDE
protein stability index: 1.92
--
SEQ STRING: FAEKGELRKSIFFESRKPTVSIME
protein stability index: 2.01
--
SEQ STRING: FEEKGELRKSIFSESRKPTVSIME
protein stability index: 3.35
--
SEQ STRING: FAEKGELRKSIFSESRKKTVSIME
protein stability index: 1.41
--
SEQ STRING: QAEKGELRKSIFSESRKPTVSIME
protein stability index: 3.97
--
SEQ STRING: FAEKGELRKPIFSESRKPTVSIME
protein stability index: 2.27
--
SEQ STRING: FAEKTELRKSIFSESRKPTVSIME
protein stability index: 1.64
--
SEQ STRING: FAEKGELRKSIFSDSRKPTVSIME
protein stability index: 1.54
--
SEQ STRING: FAEKGELRKSIFSESDKPTVSIME
protein stability index: 2.04
--
SEQ STRING: FAEKGELRKSIFSESHKPTVSIME
protein stability index: 1.74
--
SEQ STRING: VAEKGELRKSIFSESRKPTVSIME
protein stability index: 3.94
--
SEQ STRING: FAEKGELRKSIFSESRKTTVSIME
protein stability index: 1.85
--
SEQ STRING: FAEKGELLKSIFSESRKPTVSIME
protein stability index: 2.32
--
SEQ STRING: FAEKGELRKSIFSESRKPTVSINE
protein stability index: 2.38
--
SEQ STRING: FAEKGELRKSIFSESRKPTVSIMH
protein stability index: 3.14
--
SEQ STRING: FAEKYELRKSIFSESRKPTVSIME
protein stability index: 2.53
--
SEQ STRING: FAEKGELRKSIFEESRKPTVSIME
protein stability index: 2.71
--
SEQ STRING: FAEKGGLRKSIFSESRKPTVSIME
protein stability index: 1.47
--
SEQ STRING: FAEKGELRKSIFSESRKPTVSAME
protein stability index: 2
--
SEQ STRING: FAEKGELRKSIFSTSRKPTVSIME
protein stability index: 2.63
--
SEQ STRING: FAEKGELRKSIFSESRAPTVSIME
protein stability index: 2.43
--
SEQ STRING: FAEKGELRKSIFSESRRPTVSIME
protein stability index: 1.53
--
SEQ STRING: FAEKGELRKSIFAESRKPTVSIME
protein stability index: 2.1
--
SEQ STRING: FAEKGELRKSIFHESRKPTVSIME
protein stability index: 1.64
--
SEQ STRING: WAEKGELRKSIFSESRKPTVSIME
protein stability index: 2.6
--
SEQ STRING: FAEKGELRKSIFSEIRKPTVSIME
protein stability index: 1.56
--
SEQ STRING: FAEKGELRKSIFSESRKPTVSYME
protein stability index: 1.38
--
SEQ STRING: FAEKGELRKSIFSESRKPTFSIME
protein stability index: 1.97
--
SEQ STRING: FAEKGELCKSIFSESRKPTVSIME
protein stability index: 2.08
--
SEQ STRING: FAEKGFLRKSIFSESRKPTVSIME
protein stability index: 2.65
--
SEQ STRING: FAEKGCLRKSIFSESRKPTVSIME
protein stability index: 2.57
--
SEQ STRING: FAEKGELRKSIFSESRKPNVSIME
protein stability index: 1.72
--
SEQ STRING: FAEKGELRKSIFSESRQPTVSIME
protein stability index: 1.68
--
SEQ STRING: FAEKGELRKSIFSESRIPTVSIME
protein stability index: 2
--
SEQ STRING: FAEKGELRKSIFSYSRKPTVSIME
protein stability index: 1.7
--
SEQ STRING: FAEKGELRKSIFSESRKPTVSCME
protein stability index: 2.68
--
SEQ STRING: FAGKGELRKSIFSESRKPTVSIME
protein stability index: 2.95
--
SEQ STRING: FAEKGELRKSIFSESRKPTVSIMV
protein stability index: 2.33
--
SEQ STRING: FAEKGELRKSIFSESRGPTVSIME
protein stability index: 1.99
--
SEQ STRING: FAEKGELRKSIFSESRKPTTSIME
protein stability index: 1.77
--
SEQ STRING: FAEKGVLRKSIFSESRKPTVSIME
protein stability index: 1.93
--
SEQ STRING: FAEKSELRKSIFSESRKPTVSIME
protein stability index: 2.11
--
SEQ STRING: FAEKGELRKSLFSESRKPTVSIME
protein stability index: 1.9
--
SEQ STRING: FAEKGELRKSIFSESRKPTVGIME
protein stability index: 1.95
--
SEQ STRING: FAEKGELRFSIFSESRKPTVSIME
protein stability index: 1.39
--
SEQ STRING: FAEKGELRKSRFSESRKPTVSIME
protein stability index: 2.71
--
SEQ STRING: FAEKGELRKSIFSESRKPIVSIME
protein stability index: 1.17
--
SEQ STRING: FAEKGELRKSIFSMSRKPTVSIME
protein stability index: 1.59
--
SEQ STRING: FAEKGELRKSIFSESRKPTESIME
protein stability index: 2.79
--
SEQ STRING: FAEKGELRLSIFSESRKPTVSIME
protein stability index: 3.5
--
SEQ STRING: FAFKGELRKSIFSESRKPTVSIME
protein stability index: 1.42
--
SEQ STRING: FAEKGELKKSIFSESRKPTVSIME
protein stability index: 2.23
--
SEQ STRING: FAEKGELRKSIFSEVRKPTVSIME
protein stability index: 2.3
--
SEQ STRING: FAEKGELRKSIISESRKPTVSIME
protein stability index: 3.39
